All figures here come from patent US20020028929A1.

# Tested on: antiserum RY469 (Rabbit antiserum prepared in Example 1-(2))
# protocol details: ELISA system for estrone with biotinylated estradiol derivative 1 as labeled compound (standard curve, cross-reactivity test)
# Format: binding
# experimental context: relative to estrone (calculated as 100%), labeled compound biotinylated estradiol derivative 1
observed property: Cross-reactivity (%)

>  <molecule>
C[C@]12CC[C@@H]3c4ccc(O)cc4CC[C@H]3[C@@H]1C[C@@H](O)[C@@H]2O [Estriol]

>  <observed property>
Cross-reactivity (%)

>  <limit operator>
=

>  <value observed>
0.15

$$$$
>  <molecule>
C[C@]12CC[C@@H]3c4ccc(O)cc4CC[C@H]3[C@@H]1CC[C@@H]2O [17β-Estradiol]

>  <observed property>
Cross-reactivity (%)

>  <limit operator>
=

>  <value observed>
33.33

$$$$
>  <molecule>
O=C(O[C@@H]1Cc2c(O)cc(O)cc2O[C@@H]1c1ccc(O)c(O)c1)c1cc(O)c(O)c(O)c1 [Epicatechin gallate]

>  <observed property>
Cross-reactivity (%)

>  <limit operator>
<

>  <value observed>
0.001

$$$$
>  <molecule>
CC(C)(c1ccc(O)cc1)c1ccc(O)cc1 [Bisphenol A]

>  <observed property>
Cross-reactivity (%)

>  <limit operator>
<

>  <value observed>
0.001

$$$$
